Recorded measurements of pKd, one per entry
- ASSAY TARGET: Recombinant human his-tagged IGF 1R extracellular domain protein (human) (UniProt P08069)
- ASSAY NOTES: SPR, captured IgG, IGF-1R ECD-his analyte, dissociation pH 6
API: returns pKd as number; meaning -log10 of concentration in mol/L.

Below: 2 binders and their reported pKd.
VRDN-02559 (antibody, V domains shown) VH: EVQLVQSGGGLVKPGGSLRLSCAASGFTFSSFHMHWVRQAPGKGLEWISVIDTRGATYYADSVKGRFTISRDNAKNSLYLQMNSLRAEDTAVYYCHRLGNFYYGMDVWGQGTTVTVSS VL: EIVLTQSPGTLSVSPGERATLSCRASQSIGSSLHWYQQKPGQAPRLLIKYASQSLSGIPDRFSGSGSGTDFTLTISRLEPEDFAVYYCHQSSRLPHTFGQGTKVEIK
8.76
VRDN-02511 (antibody, V domains shown) VH: EVQLVQSGGGLVKPGGSLRLSCAASGFTFSSFAMHWVRQAPGKGLEWISVIDHRGATYYADSVKGRFTISRDNAKNSLYLQMNSLRAEDTAVYYCARLGNFYYGMDVWGQGTTVTVSS VL: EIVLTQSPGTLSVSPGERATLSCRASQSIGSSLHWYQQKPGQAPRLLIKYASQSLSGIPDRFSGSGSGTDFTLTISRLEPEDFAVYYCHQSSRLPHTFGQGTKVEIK
8.37

--- query ---
Data request: Any idea what pKd was measured for VRDN-02532 (antibody, V domains shown) VH: EVQLVQSGGGLVKPGGSLRLSCAASGFTFSSFAMHWVRQAPGKGLEWISVIDTRGATYYADSVKGRFTISRDNAKNSLYLQMNSLRAEDTAVYYCARLGNFYYGMDVWGQGTTVTVSS VL: EIVLTQSPGTLSVSPGERATLSCRASQHIGSSLHWYQQKPGQAPRLLIKYASQSLSGIPDRFSGSGSGTDFTLTISRLEPEDFAVYYCHQSSRLPHTFGQGTKVEIK ?
Data returned: 10.53
